This collection of values is drawn from ChEMBL document CHEMBL1201862.

# System: MDA-MB-231
# Assay explanation: NCI tumour cell line growth inhibition, 48 h
Activity calls are given as the source filed them. No stated cut-off is given here; in the data, active = GI50 up to about 1.1 µM and inactive = higher.
Reply using exactly one outcome from active, inactive

Some solved cases for reference:
COc1cc(S(=O)(=O)Nc2nc(-c3ccc(N4C(=O)/C(=C/C=C/c5ccccc5)N=C4c4ccccc4)cc3)cs2)ccc1Cl = inactive
COC(=O)C1=C(C=O)C2C=CC1C2 (centres undefined) = inactive
O=C(O)CCCc1ccc2ccccc2c1 = inactive
Cc1cn(C2OC(CO[Si](C)(C)C(C)(C)C)C(N(C)O[Si](C)(C)C(C)(C)C)C2[Se]c2ccccc2)c(=O)[nH]c1=O (centres undefined) = inactive
CC(=O)O[C@@H]1C2=C(C3=C([O-])C4=CC=CC(=O)C4C(=O)C3=C2[N+]#N)[C@H](OC(C)=O)[C@@H](OC(C)=O)[C@]1(C)O (some centres undefined) = active
CSc1nc(C)c(CCOC(C)=O)c(N=P(c2ccccc2)(c2ccccc2)c2ccccc2)n1 = inactive
COc1ccc2c3c1OC1C4(CCC5C(C2)N(CC2CC2)CCC351)OCCO4 (centres undefined) = inactive
NC(=O)C[S+]([O-])CC(N)C(=O)O (centres undefined) = inactive

Now examine the next entry.
[Q] What was the test verdict on CC(=O)O[C@H]1CCC2[C@@H]3CCC4NC(=O)C(C#N)C[C@]4(C)C3CC[C@@]21C (some centres undefined) ?
[A] inactive
